Tested on: healthy rats
Experiment: content of aminotransferase in the serum of healthy rats after oral administration for 15 days
Assay type: in vivo
Conditions: serum of healthy rats; oral administration for 15 days; n=10
Structures can show the parent of a compound that is named as a salt.
Answer each item with its documented AST.

Item CS(=O)(=O)Nc1cc2scc(NC=O)c(=O)c2cc1[S+]([O-])c1ccccc1 (stereo not drawn) [Compound 3] ; assay system healthy rats; AST reported as 90 ± 8.76 U/L

Item CS(=O)(=O)Nc1cc2scc(NC=O)c(=O)c2cc1Sc1ccccc1 [Compound 2 potassium salt] ; assay system healthy rats; AST reported as 77 ± 9.02 U/L

Item CS(=O)(=O)Nc1cc2scc(NC=O)c(=O)c2cc1Oc1ccccc1 [Compound 1] ; assay system healthy rats; AST reported as 75 ± 8.22 U/L

Item CS(=O)(=O)Nc1cc2scc(NC=O)c(=O)c2cc1S(=O)(=O)c1ccccc1 [Compound 4] ; assay system healthy rats; AST reported as 79 ± 9.82 U/L

Item CS(=O)(=O)Nc1cc2scc(NC=O)c(=O)c2cc1Sc1ccccc1 [Compound 2] ; assay system healthy rats; AST reported as 80 ± 9.28 U/L

Item CS(=O)(=O)Nc1cc2scc(NC=O)c(=O)c2cc1Oc1ccccc1 [Compound 1 potassium salt] ; assay system healthy rats; AST reported as 78 ± 8.74 U/L

====

Tested on: healthy rats
Assay: content of aminotransferase in the serum of healthy rats after oral administration for 15 days
Format: in vivo
Conditions: serum of healthy rats; oral administration for 15 days; n=10
Counter-ions that a name gives are not always drawn.
property: ALT (U/L)
Express the result in U/L but write the number alone.

ALT for CS(=O)(=O)Nc1cc2scc(NC=O)c(=O)c2cc1S(=O)(=O)c1ccccc1 [Compound 4] is 133

ALT for CS(=O)(=O)Nc1cc2scc(NC=O)c(=O)c2cc1S(=O)(=O)c1ccccc1 [Compound 4 potassium salt] is 132

ALT for CS(=O)(=O)Nc1cc2scc(NC=O)c(=O)c2cc1Oc1ccccc1 [Compound 1 potassium salt] is 126

ALT for CS(=O)(=O)Nc1cc2scc(NC=O)c(=O)c2cc1Oc1ccccc1 [Compound 1 sodium salt] is 129

ALT for CS(=O)(=O)Nc1cc2scc(NC=O)c(=O)c2cc1[S+]([O-])c1ccccc1 (centres unmarked) [Compound 3 potassium salt] is 141

ALT for CS(=O)(=O)Nc1cc2scc(NC=O)c(=O)c2cc1Sc1ccccc1 [Compound 2] is 108

ALT for CS(=O)(=O)Nc1cc2scc(NC=O)c(=O)c2cc1[S+]([O-])c1ccccc1 (centres unmarked) [Compound 3] is 143

ALT for CS(=O)(=O)Nc1cc2scc(NC=O)c(=O)c2cc1Sc1ccccc1 [Compound 2 potassium salt] is 109

====

System: healthy rats
Experiment: content of aminotransferase in the serum of healthy rats after oral administration for 15 days
Format: in vivo
Details: serum of healthy rats; oral administration for 15 days; n=10
Where a name gives a salt, the structure may show the parent alone.
Answer each item with its documented ALT.
Express the result in U/L but write the number alone.

ALT for CS(=O)(=O)Nc1cc2scc(NC=O)c(=O)c2cc1S(=O)(=O)c1ccccc1 [Compound 4 sodium salt] is 130

ALT for CS(=O)(=O)Nc1cc2scc(NC=O)c(=O)c2cc1Sc1ccccc1 [Compound 2 sodium salt] is 104

ALT for CS(=O)(=O)Nc1cc2occ(NC=O)c(=O)c2cc1Oc1ccccc1 [Iguratimod, reference compound] is 173

ALT for CS(=O)(=O)Nc1cc2scc(NC=O)c(=O)c2cc1Oc1ccccc1 [Compound 1] is 125

ALT for CS(=O)(=O)Nc1cc2scc(NC=O)c(=O)c2cc1[S+]([O-])c1ccccc1 (centres unmarked) [Compound 3 sodium salt] is 140
